Values from patent US20250313612A1

Field: Neut IC50 (µg/ml) subtype B. Provide a value for each of the binders that follow.
# tgt: RSV F protein of subtype B (18537) on recombinant mKate-RSV (Respiratory syncytial virus subtype B …, UniProt P13843 26-574)
# assay.name: cell-based or functional assay

Enquiry: Given the entry ADI-14561 (antibody, V domains shown, IgG) VH: QVQLVQSGAEVKKPGSSVRVTCKASGGTVSDYAITWVRQAPGQGLEWMGGFIPMFGVAKDAEKFQGRVTLTGDKSTNAVYMELSSLTSEDTAVYYCARSKRLPAGLSTSDYYYYYLDVWGKGTTVTVSS VL: EIVLTQSPGTLSLSPGEGATLSCTASQNVFRTHVAWYQQTPGQAPRLLIYGGSTRATGIPDRFSGSGSGTDFTLIISRLEPEDFAVYYCHHFGTTPWTFGQGTKVEIK , report its measured Neut IC50 (µg/ml) subtype B.
Return: > 10 µg/mL

Enquiry: Same again, this time with ADI-14534 (antibody, V domains shown, IgG; also called Antibody Number 94) VH: EVQLVESGGGVVQPGRSLRLSCAVSGFTFSNFGMHWVRQAPGKGLEWVAAISYDGRKRFQADSVKGRFTISRDNLKNTLNLQMNSLKTEDTAVYYCAKSSRLLDWLYNMDFWGQGTTVTVSS VL: SYVLTQPPSVSVAPGKTARITCGGNILGSSSVHWFQQKAGQAPVLVIYYDSDRPSGIPERFSGSHSGDTATLTISRVEVGDEADYYCQVWDNSNSQGVFGGGTQLTVL
Return: > 10 µg/mL

Enquiry: Same again, this time with ADI-14562 (antibody, V domains shown) VH: EVQLVESGPEVKGPGSSVKVSCEASAATFSNYAISWVRQAPGQGLEWMGGFVPMLGTRNYAQKFKGRVTLTADVSTHTLYLEIGSLRFEDTAVYYCATVAGLGTSYGRYLESWGQGTLVTVSS VL: DIRMTQSPSSVSASLGDRVTITCRASQDISTALAWYQQIPGKAPKLLIYEASSLQSGVPSRFRGSGSETDFALTISSLQPEDFATYYCQQAKSFPYTFGQGTKVEIK
Return: 10.5 µg/mL
